The following compounds have recorded Ki on UniProt P34998.
Sequence (P34998 24-415): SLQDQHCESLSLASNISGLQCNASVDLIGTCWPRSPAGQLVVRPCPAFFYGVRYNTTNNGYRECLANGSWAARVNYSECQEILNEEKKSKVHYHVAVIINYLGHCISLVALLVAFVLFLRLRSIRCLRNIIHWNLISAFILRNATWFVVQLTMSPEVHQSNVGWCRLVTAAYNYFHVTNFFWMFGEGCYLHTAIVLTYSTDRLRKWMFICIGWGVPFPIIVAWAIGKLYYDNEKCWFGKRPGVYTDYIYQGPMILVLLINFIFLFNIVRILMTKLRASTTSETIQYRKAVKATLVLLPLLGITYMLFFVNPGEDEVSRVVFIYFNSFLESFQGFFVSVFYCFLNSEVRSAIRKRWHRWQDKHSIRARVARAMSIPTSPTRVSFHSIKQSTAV
Counter-ions that a name gives are not always drawn.
measuredQuantity: Ki (nM)

compound="CCC(CC)c1cc(C)nn2c(-c3sc(N4CCOCC4)nc3Cl)c(C)nc12 [Example 199]" measuredvalue=9.98
compound="CCC(CC)c1cc(C)nn2c(-c3sc(N4CCOCC4)nc3Cl)c(C)nc12 [Example 102, hydrochloride salt]" measuredvalue=4.92

Values were extracted from patent US7612067B2.
